PROTOCOL: Human trial: blood serum levels of quercetin after ingestion, HPLC-UV
Assay type: in vivo
APPLIED CONDITIONS: human subject, 80 mg quercetin oral, time 0 min

| COMPOUND | concentration at 0 min, ng/mL |
| --- | --- |
| O=c1c(O)c(-c2ccc(O)c(O)c2)oc2cc(O)cc(O)c12 [Quercetin] | 0 |

* * *

PROTOCOL: Human trial: blood serum levels of quercetin after ingestion, HPLC-UV
Format: in vivo
APPLIED CONDITIONS: human subject, 80 mg quercetin oral, time 195 min

| MOLECULE | concentration at 195 min [ng/mL] |
| --- | --- |
| O=c1c(O)c(-c2ccc(O)c(O)c2)oc2cc(O)cc(O)c12 [Quercetin] | 0 |
